Target: human GPR43 (Homo sapiens (Human))
Sequence (O15552 whole entry): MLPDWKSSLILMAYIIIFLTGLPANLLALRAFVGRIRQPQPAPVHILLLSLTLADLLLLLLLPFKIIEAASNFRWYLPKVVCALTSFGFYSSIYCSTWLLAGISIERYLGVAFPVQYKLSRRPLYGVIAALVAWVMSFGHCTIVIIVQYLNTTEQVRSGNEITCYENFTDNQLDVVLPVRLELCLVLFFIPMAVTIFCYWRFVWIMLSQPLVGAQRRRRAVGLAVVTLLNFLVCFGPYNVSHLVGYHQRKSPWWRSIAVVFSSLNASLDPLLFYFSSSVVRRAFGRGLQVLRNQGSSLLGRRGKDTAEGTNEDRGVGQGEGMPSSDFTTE
Assay: Ca-Flux functional assay: determination of agonist/positive allosteric modulator (PAM) activity
Type: cell-based
Conditions: CHO-K1 Gα16 cells stably expressing human GPR43; compound added with EC20 sodium acetate; intracellular Ca2+ by FLIPR; does not distinguish agonist from PAM
PROPERTY_MEASURED: pEC50
API: returns pEC50 as number; meaning -log10 of concentration in mol/L.

Solved cases below.
Nc1[nH]c2c(N3CCOCC3)ncnc2c1S(=O)(=O)c1ccccc1 [Example 6] ... 6.56
Cc1nc(N2CCOC(C)(C)C2C)c2[nH]c(N)c(S(=O)(=O)c3ccccc3F)c2n1 (centres unmarked) [Example 8] ... 8.52
CCN(C)c1ncnc2c(S(=O)(=O)c3ccccc3)c(N)[nH]c12 [Example 97] ... 6.35

So the reported pEC50 for Cc1nc(N2CCOC3(CC3)C2)c2[nH]c(N)c(S(=O)(=O)c3ccccc3)c2n1 [Example 205] , on human GPR43 (Homo sapiens (Human)), turned out to be 8.15

Param item: Cc1nc(OC2CCOC(C)(C)C2)c2[nH]c(N)c(S(=O)(=O)c3ccccc3)c2n1 (centres unmarked) [Example 253] ; param system: human GPR43 (Homo sapiens (Human)); output pEC50: 6.88

So the reported pEC50 for Nc1[nH]c2c(C3=CCCCC3)ncnc2c1S(=O)(=O)C1CCOC1 (centres unmarked) [Example 78] , on human GPR43 (Homo sapiens (Human)), turned out to be 5.63

Tested on human GPR43 (Homo sapiens (Human)): Nc1[nH]c2c(N3CCC(OCC4CC4)CC3)ncnc2c1S(=O)(=O)c1ccccc1 [Example 116] . Observed pEC50: 7.10

Measured pEC50 (human GPR43 (Homo sapiens (Human))), entry COc1ccc(S(=O)(=O)c2c(N)[nH]c3c(N4CCC(F)(F)CC4)ncnc23)cc1 [Example 68] : 7.49
